Assign GI50 to each entry below.
test system: SK-MEL-28; assay: NCI tumour cell line growth inhibition, 48 h
Active and inactive are the calls of the source. Cut-off read from the data, not from the text of the source: active = GI50 up to about 1.1 µM and inactive = higher.

Below are worked cases with known answers.
INSERT INTO results (molecule, reportedendpoint, experimentalvalue) VALUES
  ('Cc1noc2cccc(OCc3ccccc3)c12', 'GI50', '> 100 µM (inactive)'),
  ('OC(CC(O)(C(F)(F)Cl)C(F)(F)Cl)c1ccccc1 (stereo unspecified)', 'GI50', '> 10 µM (inactive)'),
  ('COc1ccc2c(c1)OCCCN(C)OC2c1ccccc1 (stereo unspecified)', 'GI50', '89.3 µM (inactive)'),
  ('Cc1nc(-c2cc3c(ccc4ccccc43)oc2=O)cs1', 'GI50', '> 100 µM (inactive)'),
  ('CC1(C)c2ccccc2C(O)C12CCC(=O)CC2 (stereo unspecified)', 'GI50', '> 100 µM (inactive)');

--- query ---
input: Report value: GI50, system: SK-MEL-28, molecule: O=C(CSc1nnc(-c2ccc(/N=C\c3ccc(Cl)cc3)cc2)o1)Nc1ccc(Cl)cc1
output: > 100 µM (inactive)

----------
Assign GI50 to each entry below.
tested on: SF-539; experiment: NCI tumour cell line growth inhibition, 48 h
Calls of active or inactive are those of the source. Cut-off read from the data, not from the text of the source: active = GI50 up to about 1.1 µM and inactive = higher.

Below are worked cases with known answers.
INSERT INTO measurements (compound, reportedendpoint, experimentalvalue) VALUES
  ('CC1CC[P+](c2ccccc2)(c2ccccc2)c2c1ccc1ccccc21 (configuration not stated)', 'GI50', '5.26 µM (inactive)'),
  ('N#C/N=C1\NCCC(=O)N1CCc1c[nH]c2ccccc12', 'GI50', '> 100 µM (inactive)'),
  ('COc1ccc(CCN2COc3ccc4ccc(=O)oc4c3C2)cc1OC', 'GI50', '> 100 µM (inactive)'),
  ('CC1(C)c2ccccc2C(O)C12CCC(=O)CC2 (configuration not stated)', 'GI50', '> 100 µM (inactive)'),
  ('ClCCCCOC1CCCCO1 (configuration not stated)', 'GI50', '> 100 µM (inactive)');

For every item below, please supply its GI50.
1. CCCCCCCCCCCCCC(=O)OC1C(CO)OC(=O)C1O (configuration not stated)
2. CC1C2Cc3ccc(O)cc3C1(C)CCN2C (configuration not stated)
3. COC(=O)[C@H]1[C@H]2C[C@@H]3c4[nH]c5cc(OC)ccc5c4CCN3C[C@H]2C[C@@H](OC(=O)c2cc(OC)c(OC)c(OC)c2)[C@@H]1OC [RESERPINE]
4. CC(N/N=C(\S)N1CCN(c2ccccn2)CC1)c1nccc2ccccc12 (configuration not stated)
5. Cc1ccccc1NC(=O)c1cc2cc(/N=N/c3ccccc3C(=O)O)ccc2oc1=O
6. COc1cc(Nc2nc3ccccc3nc2C(C)C)cc(OC)c1OC
7. N/N=c1\c2ccccc2c2cc3c(cc12)/c(=N/N)c1ccccc13
8. O=c1[nH]c2cc([N+](=O)[O-])c(N/N=C/c3ccc(Cl)cc3Cl)c([N+](=O)[O-])c2[nH]1

output:
1: > 100 µM (inactive); 2: > 100 µM (inactive); 3: 11.6 µM (inactive); 4: 0.646 µM (active); 5: 18 µM (inactive); 6: > 100 µM (inactive); 7: > 100 µM (inactive); 8: > 100 µM (inactive)

For every item below, please supply its GI50.
1. COC(=O)/N=[N+](\[O-])C(c1ccc(OC)cc1)C1CCCCC1 (configuration not stated)
2. O=c1[nH]c2ccc(C(F)(F)F)cc2nc1Cc1ccccc1
3. CC1(C)COC2=C(C1)C(=O)c1ccccc1C2=O
4. C=CC1ON(Cc2ccccc2)CCc2cc(OC)c(OC)cc21 (configuration not stated)

output:
12.3 µM (inactive)
31.3 µM (inactive)
1.54 µM (inactive)
83.4 µM (inactive)

For every item below, please supply its GI50.
1. Nc1nc(-[n+]2ccc(-c3ccncc3)cc2)nc(Cl)c1Cl
2. O=C(O)C1=C(C(=O)Nc2ccc(NC(=O)C3=C(C(=O)O)C4C=CC3C4)cc2)C2C=CC1C2

output:
26.8 µM (inactive)
> 100 µM (inactive)

For every item below, please supply its GI50.
1. CC1=Nc2c(O)nc(S)nc2NC(c2c(Cl)cccc2Cl)C1 (configuration not stated)
2. COc1cccc(NC(=O)/C(Cc2nc3ccccc3nc2C)=N/NC(=O)C[n+]2ccccc2)c1
3. COc1ccc(-c2nc3ccc([N+](=O)[O-])cc3c(=O)[nH]2)cc1

output:
1: 1.75 µM (inactive); 2: > 100 µM (inactive); 3: 14.5 µM (inactive)

----------
test system: CAKI-1; assay: NCI tumour cell line growth inhibition, 48 h
Active and inactive are the calls of the source. No stated cut-off is given here; in the data, active = GI50 up to about 1.1 µM and inactive = higher.
Answer with one of the outcomes class 1 (active), class 0 (inactive)

Observe how each entry below is paired with its result.
INSERT INTO assay_data (molecule, grouplabel) VALUES
  ('COC(=O)C(=O)C(C#N)c1c(Cl)cccc1Cl (stereo unspecified)', 'class 0'),
  ('Cc1cc2c(cc1C)[n+]([O-])c(C#N)c(Cl)[n+]2[O-]', 'class 0'),
  ('O=c1[nH]c2ccc(CC(=S)N3CCN(c4ccccc4)CC3)cc2s1', 'class 0');

input: What did the test return for COc1cc(C2c3cc4c(cc3[C@@H](OCCN)[C@H]3COC(=O)C23)OCO4)cc(OC)c1O (stereo partly specified) ?
output: class 1

input: What did the test return for CC(O)C(CO)NC(=O)C1CSSCC(NC(=O)C(N)Cc2ccccc2)C(=O)NC(Cc2ccccc2)C(=O)NC(Cc2c[nH]c3ccccc23)C(=O)NC(CCCCN)C(=O)NC(C(C)O)C(=O)N1 (stereo unspecified) ?
output: class 0

----------
system: MCF7; test: NCI tumour cell line growth inhibition, 48 h
The source made the active and inactive calls. Cut-off read from the data, not from the text of the source: active = GI50 up to about 1.1 µM and inactive = higher.
reportedEndpoint: GI50

Below are worked cases with known answers.
INSERT INTO assay_data (molecule, target, experimentalvalue) VALUES
  ('CC12CC(c3ccccc3O1)C(C(=O)Nc1ccc(Cl)cc1Cl)C(=O)N2 (configuration not stated)', 'MCF7', '> 100 µM (inactive)'),
  ('N#CCCC1(CCC#N)CCCCCCCCC(CCC#N)(CCC#N)C(O)C1O (configuration not stated)', 'MCF7', '> 100 µM (inactive)'),
  ('S=C(N/N=C(\c1ccccc1)c1ccccn1)NC1CCCCC1', 'MCF7', '0.433 µM (active)'),
  ('COc1ccccc1C1(c2c(OC(C)C)c(=O)c2=O)SCCCS1', 'MCF7', '> 100 µM (inactive)'),
  ('C=CC1(c2ccc(-c3ccccc3)cc2)OCCO1', 'MCF7', '54.6 µM (inactive)');

For every item below, please supply its GI50.
1. CCCCC1C=Cn2c(=O)oc3c(OC(C)C)c(C)c(O)c1c32 (configuration not stated)
2. Nc1nc(Cl)nc(NCc2ccccc2)n1

output:
1: 0.509 µM (active); 2: > 100 µM (inactive)

----------
Assign GI50 to each entry below.
system: EKVX; experiment: NCI tumour cell line growth inhibition, 48 h
Active and inactive are the calls of the source. No stated cut-off is given here; in the data, active = GI50 up to about 1.1 µM and inactive = higher.

Below are worked cases with known answers.
INSERT INTO measurements (compound, experimentalvalue) VALUES
  ('O=c1[nH]c2cc([N+](=O)[O-])c(N/N=C/c3ccc(Cl)cc3Cl)c([N+](=O)[O-])c2[nH]1', '> 100 µM (inactive)'),
  ('CCCCCCCCCC[C@H](O)[C@H]1CC[C@H]([C@H]2CC[C@H]([C@H](O)CC[C@H](O)CCCCCCC[C@@H](O)CC3=C[C@H](C)OC3=O)O2)O1', '23.5 µM (inactive)'),
  ('CSc1nc(SC)c2c(C(N)=S)n[nH]c2n1', '22.2 µM (inactive)');

For every item below, please supply its GI50.
1. COC1(CC[C@@H](C)COC2OC(CO)C(O)C(O)C2O)O[C@H]2C[C@H]3[C@@H]4CC=C5C[C@@H](OC6OC(CO)C(O)C(OC7OC(CO)C(O)C(O)C7O)C6OC6OC(C)C(O)C(O)C6O)CC[C@]5(C)[C@H]4CC[C@]3(C)[C@H]2[C@@H]1C (some centres undefined)
2. COC(=O)C1C=CCON2CCc3c(n(C)c4ccccc34)C12 (centres undefined)
3. O=C(O)C1C2C=CC(O2)C1C(=O)NCc1ccncc1 (centres undefined)
4. c1cc(-c2ccc(-c3nc4ccc(C5=NCCN5)cc4s3)s2)ccc1C1=NCCN1
5. CC1=C(C(=O)CC(=O)C(=O)NC2C3CC4CC(C3)CC2C4)Sc2ccccc2N1 (centres undefined)
6. COc1ccc(C2CC(=O)Oc3ccccc3O2)cc1 (centres undefined)

output:
1: 15.9 µM (inactive); 2: 92.3 µM (inactive); 3: > 100 µM (inactive); 4: 1.28 µM (inactive); 5: > 100 µM (inactive); 6: > 100 µM (inactive)
